Origin of the recorded values: PubChem BioAssay AID1745853

biological target: Catechol O-methyltransferase (Homo sapiens); assay: Primary Screen for Target Class Profiling of Small Molecule Inhibitors of Methyltransferases; details: purified enzyme, MTase-Glo SAH luminescence; at 40 µM; further: on the % scale 0 is the no-effect control and ±100 the full control effect
In all, about 25,000 compounds went through this assay and about 970 (3.9%) were called active. About 8% were inconclusive and are not listed. How the calls were made is not given here. Shown is part of a subset that was picked to be rich in actives.
Classes used: yes for active, no for inactive

>  <Compound>
CCOC(=O)c1cc(Nc2ccc(C(C)=O)cc2)c2cc(Cl)ccc2n1

>  <Class Assignment>
no

$$$$
>  <Compound>
O=C(Nc1ccccc1Cl)N1CCn2cccc2C1Cc1ccccc1 (configuration not stated)

>  <Class Assignment>
no

$$$$
>  <Compound>
CCCCOc1ccc(CNC(=O)c2cc3n(n2)CC(C)(C(=O)NCc2ccccc2)N(C)C3=O)cc1 (configuration not stated)

>  <Class Assignment>
no

$$$$
>  <Compound>
CN(C)CCN(C)[C@H]1[C@@H]2OC[C@@H](O2)[C@@H](NCc2ccc(N(C)C)cc2)[C@@H]1O

>  <Class Assignment>
no

$$$$
>  <Compound>
CCCC1c2ccc(C)n2CCN1C(=O)Nc1ccc(OCC)cc1 (configuration not stated)

>  <Class Assignment>
no

$$$$
>  <Compound>
CCC(CC)C(=O)NC[C@H]1O[C@@H](CC(=O)N2CCC(C)CC2)[C@H](O)[C@@H]1O

>  <Class Assignment>
no

$$$$
>  <Compound>
CN(CCc1ccccn1)c1ncccc1CNC(=O)C1CCc2ccccc21 (configuration not stated)

>  <Class Assignment>
no

$$$$
>  <Compound>
COc1ccc(-c2nc3ccncc3[nH]2)cc1

>  <Class Assignment>
yes

$$$$
>  <Compound>
Cc1cccc(NC(=O)CSc2nnc3n(CC(C)C)c(=O)c4ccc(C(=O)NC(C)C)cc4n23)c1

>  <Class Assignment>
no

$$$$
>  <Compound>
Cc1cccc(CSc2nnc3n(CC(C)C)c(=O)c4ccccc4n23)c1

>  <Class Assignment>
no

$$$$
>  <Compound>
CCC(C)N1Cc2cc(NC(=O)c3ccc([N+](=O)[O-])cc3)ccc2OCC1=O (configuration not stated)

>  <Class Assignment>
no

$$$$
>  <Compound>
C=Cc1ccc(Cn2nc3n(CC(C)C)c(=O)c4ccc(C(=O)NC(C)CC)cc4n3c2=O)cc1 (configuration not stated)

>  <Class Assignment>
no

$$$$
>  <Compound>
O=C(c1ccc(C(F)(F)F)cc1)N1CCC2(COc3ccncc3[S+](=O)([O-])N2)C1 (configuration not stated)

>  <Class Assignment>
no

$$$$
>  <Compound>
O=C(O)C1=NOC2CN([S+](=O)([O-])c3cc(C(F)(F)F)cc(C(F)(F)F)c3)CC12 (configuration not stated)

>  <Class Assignment>
no

$$$$
>  <Compound>
COc1ccc(CCN2C(=O)c3ccc(-c4ccco4)n3CC2(C)C(=O)NCc2ccc(Cl)cc2)cc1OC (configuration not stated)

>  <Class Assignment>
no

$$$$
>  <Compound>
CNC(=O)c1ccccc1Nc1nc(Nc2ccc(N3CCOCC3)cc2OC)ncc1Cl

>  <Class Assignment>
no

$$$$
>  <Compound>
O=C(NCc1ccc2c(c1)OCO2)c1sc(=S)n2c1[nH]c(=O)c1ccccc12

>  <Class Assignment>
yes

$$$$
>  <Compound>
COc1c(C)c(OCC=C(C)C)cc2c1C(=O)NC2=O

>  <Class Assignment>
no

$$$$
>  <Compound>
CCOC(=O)c1cc2n(n1)CC(C)(C(=O)NCc1ccccc1)N(CCCc1ccccc1)C2=O (configuration not stated)

>  <Class Assignment>
no

$$$$
>  <Compound>
COc1ccc(OC)c(CNC(=O)CCn2ccc3cc(S(=O)(=O)N4CCCCC4)ccc32)c1

>  <Class Assignment>
no

$$$$
>  <Compound>
CC1CCN(S(=O)(=O)c2ccc3c(ccn3CCC(=O)N3CCN(c4ccccn4)CC3)c2)CC1

>  <Class Assignment>
no

$$$$
>  <Compound>
CC1(C=O)CC[C@]2(C(=O)O[C@@H]3O[C@H](CO)[C@@H](O)[C@H](O)[C@H]3O)CC[C@]3(C)C(=CCC4[C@@]5(C)C[C@H](O)[C@H](O[C@@H]6OC[C@@H](O)[C@H](O)[C@H]6O)[C@@](C)(CO)C5CC[C@]43C)C2C1 (some centres not stated)

>  <Class Assignment>
no

$$$$
>  <Compound>
CCOc1ccc(CNC(=O)c2cc3n(n2)CC(C)(C(=O)NCc2ccc(F)cc2)N(C)C3=O)cc1OC (configuration not stated)

>  <Class Assignment>
no

$$$$
>  <Compound>
Cc1cc2c(cc3n2CC(C)(C(=O)NC2CCCCC2)N(C2CCCCCC2)C3=O)o1 (configuration not stated)

>  <Class Assignment>
no

$$$$
>  <Compound>
CCOc1ccccc1CN1C(=O)c2ccc(-c3ccco3)n2CC1(C)C(=O)NC1CCCCC1 (configuration not stated)

>  <Class Assignment>
no

$$$$
>  <Compound>
COCCn1c2c(c(=O)n1-c1ccccc1)CCN(Cc1cccc(C#N)c1)C2

>  <Class Assignment>
no

$$$$
>  <Compound>
CCn1cc(S(=O)(=O)N2CCC(C3CCN(C(=O)NC)CC3)C2)cn1 (configuration not stated)

>  <Class Assignment>
no

$$$$

----------
target: Guanidinoacetate N-methyltransferase (Homo sapiens); test: Primary Screen for Target Class Profiling of Small Molecule Inhibitors of Methyltransferases; conditions: purified enzyme, MTase-Glo SAH luminescence; measured here: GAMT inhibition; at 40 µM; stronger effect = lower value; further: on the % scale 0 is the no-effect control and ±100 the full control effect
In all, about 25,000 compounds went through this assay and about 970 (3.9%) were called active. Another 8% or so got no clear call; they are omitted. Many of the other results were omitted from the sample, so actives are more common in it than they were.
Outcome Measure: activity change, negative = inhibition (%)

>  <Compound>
CC1(C(=O)NC2CCCC2)Cn2c(cc3ccccc32)C(=O)N1c1ccc(F)cc1 (centres undefined)

>  <Unit Abbreviation>
%

>  <Measured Result>
0

$$$$
>  <Compound>
CCOC(=O)CC1(NC(=O)N2CCn3cccc3C2Cc2ccccc2)CCCCC1 (centres undefined)

>  <Unit Abbreviation>
%

>  <Measured Result>
-5.73

$$$$
>  <Compound>
COc1cc(O)c(C(=O)CCc2ccc(O)cc2)c(O[C@@H]2O[C@H](CO)[C@@H](O)[C@H](O)[C@H]2O)c1

>  <Unit Abbreviation>
%

>  <Measured Result>
-12.8

$$$$
>  <Compound>
COCCOc1cc(=O)n2c(c1C(=O)NCc1ccccc1)CCOCC2

>  <Unit Abbreviation>
%

>  <Measured Result>
-0.934

$$$$
>  <Compound>
C=Cc1ccc(Cn2nc3n(CC(C)C)c(=O)c4ccc(C(=O)NC(C)CC)cc4n3c2=O)cc1 (centres undefined)

>  <Unit Abbreviation>
%

>  <Measured Result>
0

$$$$
>  <Compound>
CC1CCCC(NC(=O)C2(C)Cn3c(nc4ccccc43)C(=O)N2Cc2ccc(Cl)cc2)C1C (centres undefined)

>  <Unit Abbreviation>
%

>  <Measured Result>
1.75

$$$$
>  <Compound>
CCCC1c2ccc(C)n2CCN1C(=O)Nc1ccc(OCC)cc1 (centres undefined)

>  <Unit Abbreviation>
%

>  <Measured Result>
0

$$$$
>  <Compound>
CN1C(=O)c2cc(C(=O)N3CCN(Cc4ccccc4)CC3)nn2CC1(C)C(=O)NCc1ccccc1 (centres undefined)

>  <Unit Abbreviation>
%

>  <Measured Result>
0.749

$$$$
>  <Compound>
NS(=O)(=O)c1ccc(F)c(C(=O)NCc2noc(-c3ccco3)n2)c1

>  <Unit Abbreviation>
%

>  <Measured Result>
-7.24

$$$$
>  <Compound>
COc1ccc(NC(=O)c2ccc(-c3ccc(C(=N)N)cc3C)cc2)cc1N1CCN(C)CC1

>  <Unit Abbreviation>
%

>  <Measured Result>
-7.77

$$$$
>  <Compound>
Cc1ccccc1CN1C(=O)c2cc(-c3cccs3)nn2CC1(C)C(=O)NC1CCCCC1 (centres undefined)

>  <Unit Abbreviation>
%

>  <Measured Result>
0

$$$$
>  <Compound>
COc1ccccc1-c1[nH]nc2ncc(C(=O)N3CCN(Cc4ccccc4)CC3)nc12

>  <Unit Abbreviation>
%

>  <Measured Result>
-63.7

$$$$
>  <Compound>
COc1ccccc1N1CCN(C(=O)C[C@@H]2C[C@@H](C(C)C)[C@H](CO)C=C2C)CC1

>  <Unit Abbreviation>
%

>  <Measured Result>
-7.59

$$$$
>  <Compound>
CCc1ccc(NS(=O)(=O)c2cc3c(cc2C)n(C)c(=O)n3C)cc1

>  <Unit Abbreviation>
%

>  <Measured Result>
0

$$$$

----------
Reported activity change, negative = inhibition values are given for each entry in this list.
target: Glycine N-methyltransferase (Homo sapiens) (UniProt Q14749); experiment: Primary Screen for Target Class Profiling of Small Molecule Inhibitors of Methyltransferases; conditions: purified enzyme, MTase-Glo SAH luminescence; measured here: GNMT inhibition; at 40 µM; stronger effect = lower value; further: on the % scale 0 is the no-effect control and ±100 the full control effect
Sequence (Q14749 whole entry, looked up): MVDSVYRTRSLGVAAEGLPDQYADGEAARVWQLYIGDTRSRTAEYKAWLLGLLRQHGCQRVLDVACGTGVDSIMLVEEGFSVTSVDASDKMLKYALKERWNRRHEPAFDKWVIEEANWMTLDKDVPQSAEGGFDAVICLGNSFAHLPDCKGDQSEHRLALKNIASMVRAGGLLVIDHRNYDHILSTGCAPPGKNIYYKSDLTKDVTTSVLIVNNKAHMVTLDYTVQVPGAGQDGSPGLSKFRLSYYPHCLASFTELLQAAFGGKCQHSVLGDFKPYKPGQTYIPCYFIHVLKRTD
The whole screen tested about 25,000 compounds, of which about 970 (3.9%) were called active. Roughly 8% stayed inconclusive and do not appear here. What follows is part of a selection rich in actives, with near analogues and random picks from the rest.

>  <Compound>
CC1(C)CCC2(C(=O)OC3OC(COC4OC(CO)C(O)C(O)C4O)C(O)C(O)C3O)CCC3(C)C(=CCC4C5(C)CCC(O)C(C)(C(=O)O)C5CCC43C)C2C1O (centres undefined)

>  <activity change, negative = inhibition / %>
0

$$$$
>  <Compound>
O=C(C1CCCC1)N1CCCC(c2noc(COc3ccccc3)n2)C1 (centres undefined)

>  <activity change, negative = inhibition / %>
-8.83

$$$$
>  <Compound>
CCOc1ccccc1CN1C(=O)c2ccc(-c3ccco3)n2CC1(C)C(=O)NC1CCCCC1 (centres undefined)

>  <activity change, negative = inhibition / %>
-1.1

$$$$
>  <Compound>
CC(C)CCn1c(=O)c2ccc(C(=O)NC(C)C)cc2n2c(=O)n(CC(=O)Nc3ccccc3)nc12

>  <activity change, negative = inhibition / %>
2.47

$$$$
>  <Compound>
CCC1CCCCN1C(=O)Cn1c(=O)oc2cc(S(=O)(=O)N3CCCC3)ccc21 (centres undefined)

>  <activity change, negative = inhibition / %>
-2.17

$$$$
>  <Compound>
CC1CCCC(NC(=O)C2(C)Cn3c(nc4ccccc43)C(=O)N2Cc2ccc(Cl)cc2)C1C (centres undefined)

>  <activity change, negative = inhibition / %>
-0.93

$$$$
>  <Compound>
CCc1ccc(S(=O)(=O)c2nnn3c2nc(N2CCCCC2)c2ccccc23)cc1

>  <activity change, negative = inhibition / %>
0.777

$$$$
>  <Compound>
CCCN1C(=O)c2cc(C(=O)NCc3cc(Br)ccc3OC)nn2CC1(C)C(=O)NC1CCCC1 (centres undefined)

>  <activity change, negative = inhibition / %>
-4.66

$$$$
>  <Compound>
O=C(c1ccc(C(F)(F)F)cc1)N1CCC2(COc3ccncc3[S+](=O)([O-])N2)C1 (centres undefined)

>  <activity change, negative = inhibition / %>
-4.6

$$$$
>  <Compound>
C[C@]12CCC[C@](C)(C(=O)O)C1[C@@H](O)[C@@H](O)C13CC(CCC12)C(CO)(O[C@@H]1O[C@H](CO)[C@@H](O)[C@H](O)[C@H]1O)C3 (some centres undefined)

>  <activity change, negative = inhibition / %>
0

$$$$
>  <Compound>
C/C=C\NC(=O)C1NC(=O)C(CC(N)=O)NC(=O)C(NC(=O)C(=O)C(C)CC)Cc2ccc(O)c(c2)-c2cccc3c2NC(=O)C3(O)C1O (centres undefined)

>  <activity change, negative = inhibition / %>
-2.05

$$$$
>  <Compound>
O=c1c2ccccc2n2c(=O)n(Cc3cccc(F)c3)nc2n1CCc1ccccc1

>  <activity change, negative = inhibition / %>
-7.42

$$$$
>  <Compound>
CCOC(=O)c1ccc(N2C(=O)CSc3c(c4ccccc4n3C)C2C(=O)NCc2ccccc2)cc1 (centres undefined)

>  <activity change, negative = inhibition / %>
13.6

$$$$
>  <Compound>
CCOC(=O)c1cc2n(n1)CC(C)(C(=O)NC1CCCC1)N(c1ccc(C)cc1)C2=O (centres undefined)

>  <activity change, negative = inhibition / %>
-0.39

$$$$
>  <Compound>
Nc1ccc2c3c(cccc13)C(=O)NC2=O

>  <activity change, negative = inhibition / %>
-41.1

$$$$
>  <Compound>
CN1CCCN(S(=O)(=O)c2cccs2)c2ccccc21

>  <activity change, negative = inhibition / %>
-11.1

$$$$
>  <Compound>
CC(C)CCNC(=O)c1ccc2c(=O)nc3c(-c4ccc(Cl)cc4)n[nH]n3c2c1

>  <activity change, negative = inhibition / %>
-1.88

$$$$
>  <Compound>
Cc1nc2c(c(NC3CC3)n1)CCN(C(=O)CCc1cccnc1)CC2

>  <activity change, negative = inhibition / %>
-3.41

$$$$
>  <Compound>
FC(F)(F)c1cccc(C2=NOC3(CCCN(CC4CCCCC4)C3)C2)c1 (centres undefined)

>  <activity change, negative = inhibition / %>
-2.05

$$$$
>  <Compound>
CCOCCCN1C(=O)c2cc3ccccc3n2CC1(C)C(=O)NCCC(C)C (centres undefined)

>  <activity change, negative = inhibition / %>
6.59

$$$$
>  <Compound>
O=C(c1coc(CN2CCN(C/C=C/c3ccccc3)CC2)n1)N1CCC[C@H]1CO

>  <activity change, negative = inhibition / %>
-0.744

$$$$
>  <Compound>
COc1ccc(C(=O)N2CCN(C(=O)N3CC4CC(C3)[C@H]3CCCC(=O)N3C4)CC2)c(OC)n1 (some centres undefined)

>  <activity change, negative = inhibition / %>
-0.248

$$$$
>  <Compound>
CCC(C)(C)NC(=O)c1cccc2c1CCN2C(=O)Nc1ccc(C)cc1

>  <activity change, negative = inhibition / %>
-1.49

$$$$
>  <Compound>
CCOc1ccc(CN2C(=O)c3cc(C(C)(C)C)nn3CC2(C)C(=O)NC2CCCCCC2)cc1 (centres undefined)

>  <activity change, negative = inhibition / %>
-3.62

$$$$
